- Test system: TLR2 induced IL-6 in peripheral blood mononuclear cells (PBMCs)
- test-method-notes: PBMC TLR2 Induced IL-6 Assay
- Type: cell-based, human
- condition: Homo sapiens, PBMC, 5 h, human PBMCs, 10 μg/ml lipoteichoic acid for 5 hours, IL-6 by ELISA; value without asterisk; read-out: Cell IC50
Would you mind telling me the reported IC50 of each entry?

Q: Which IC50 is reported for this molecule? CC(C)Nc1cc(Nc2ccc3nnccc3c2)ncc1C(=O)NC[C@@H](F)C(C)(C)O
A: 587 nM

Q: Same again, this time with CC(C)(O)[C@H](F)CNC(=O)c1cnc(Nc2ccc3ncsc3c2)cc1NCCC1CC1
A: 143 nM

Q: Follow-up entry: CCOC(=O)c1cn2c(n1)sc1cc(Nc3cc(NC4CCCC4)c(C(=O)NC)cn3)ccc12
A: 180 nM

Q: # iterate: CNC(=O)c1cnc(Nc2ccc3ncsc3c2)cc1NC1C2CC3CC1CC(O)(C3)C2 (single isomer, unassigned)
A: 550 nM

Q: Check CC(C)(O)[C@H](F)CNC(=O)c1cnc(Nc2ccc3ncsc3c2)cc1N[C@@H](c1cc(Cl)cc(Cl)c1)[C@H](O)CO too.
A: 377 nM

Q: Similarly, CC(C)(O)[C@H](F)CNC(=O)c1cnc(Nc2ccc3ncsc3c2)cc1NC1CCCC1(F)F (stereo partly drawn) ?
A: 48 nM

Q: Now try CC(C)(O)[C@H](F)CNC(=O)c1cnc(Nc2ccc3ncc(C#N)cc3n2)cc1NC1CCCC1(F)F (stereo partly drawn) .
A: 28 nM

Q: How about CC(C)(O)[C@H](F)CNC(=O)c1cnc(Nc2ccc3nccnc3c2)cc1NC1CCCC1O (stereo partly drawn) ?
A: 493 nM

Q: Now give it for CC(C)(O)[C@H](F)CNC(=O)c1cnc(Nc2ccc3nonc3c2)cc1NCC(F)(F)F too.
A: 830 nM

Q: What do you get for CC(C)Nc1cc(Nc2ccc3ncsc3c2)ncc1C(=O)NCC(F)(F)C(C)(C)O ?
A: 571 nM

Q: Okay, and Cc1ccccc1CNc1cc(Nc2ccc3ncsc3c2)ncc1C(=O)NC[C@@H](F)C(C)(C)O ?
A: 266 nM

Q: Cool, now CNC(=O)[C@H]1CC[C@H](NC(=O)c2cnc(Nc3ccc4ncsc4c3)cc2NCC(F)(F)F)CC1
A: 320 nM

Q: Then COc1ncnc2ccc(Nc3cc(NC4CC4)c(C(=O)NC[C@@H](F)C(C)(C)O)cn3)cc12 ?
A: 391 nM

Q: Here is the next molecule: CC(C)(O)[C@H](F)CNC(=O)c1cnc(Nc2ccc3ncsc3c2)cc1NC1CCSCC1
A: 180 nM

Q: Would you kindly repeat that for CC(C)(O)[C@H](F)CNC(=O)c1cnc(Nc2ccc3ncsc3c2)cc1NC12CCC(O)(CC1)C2 ?
A: 230 nM
